# systemName: ATM (Homo sapiens, UniProt Q13315)
# Construct: detecting phosphorylation of Chk2 in a human non-small cell lung cancer cell line NCI-H460 (ATCC company); host or cells: NCI-H460 human non-small cell lung cancer cells
# Sequence (Q13315 whole entry): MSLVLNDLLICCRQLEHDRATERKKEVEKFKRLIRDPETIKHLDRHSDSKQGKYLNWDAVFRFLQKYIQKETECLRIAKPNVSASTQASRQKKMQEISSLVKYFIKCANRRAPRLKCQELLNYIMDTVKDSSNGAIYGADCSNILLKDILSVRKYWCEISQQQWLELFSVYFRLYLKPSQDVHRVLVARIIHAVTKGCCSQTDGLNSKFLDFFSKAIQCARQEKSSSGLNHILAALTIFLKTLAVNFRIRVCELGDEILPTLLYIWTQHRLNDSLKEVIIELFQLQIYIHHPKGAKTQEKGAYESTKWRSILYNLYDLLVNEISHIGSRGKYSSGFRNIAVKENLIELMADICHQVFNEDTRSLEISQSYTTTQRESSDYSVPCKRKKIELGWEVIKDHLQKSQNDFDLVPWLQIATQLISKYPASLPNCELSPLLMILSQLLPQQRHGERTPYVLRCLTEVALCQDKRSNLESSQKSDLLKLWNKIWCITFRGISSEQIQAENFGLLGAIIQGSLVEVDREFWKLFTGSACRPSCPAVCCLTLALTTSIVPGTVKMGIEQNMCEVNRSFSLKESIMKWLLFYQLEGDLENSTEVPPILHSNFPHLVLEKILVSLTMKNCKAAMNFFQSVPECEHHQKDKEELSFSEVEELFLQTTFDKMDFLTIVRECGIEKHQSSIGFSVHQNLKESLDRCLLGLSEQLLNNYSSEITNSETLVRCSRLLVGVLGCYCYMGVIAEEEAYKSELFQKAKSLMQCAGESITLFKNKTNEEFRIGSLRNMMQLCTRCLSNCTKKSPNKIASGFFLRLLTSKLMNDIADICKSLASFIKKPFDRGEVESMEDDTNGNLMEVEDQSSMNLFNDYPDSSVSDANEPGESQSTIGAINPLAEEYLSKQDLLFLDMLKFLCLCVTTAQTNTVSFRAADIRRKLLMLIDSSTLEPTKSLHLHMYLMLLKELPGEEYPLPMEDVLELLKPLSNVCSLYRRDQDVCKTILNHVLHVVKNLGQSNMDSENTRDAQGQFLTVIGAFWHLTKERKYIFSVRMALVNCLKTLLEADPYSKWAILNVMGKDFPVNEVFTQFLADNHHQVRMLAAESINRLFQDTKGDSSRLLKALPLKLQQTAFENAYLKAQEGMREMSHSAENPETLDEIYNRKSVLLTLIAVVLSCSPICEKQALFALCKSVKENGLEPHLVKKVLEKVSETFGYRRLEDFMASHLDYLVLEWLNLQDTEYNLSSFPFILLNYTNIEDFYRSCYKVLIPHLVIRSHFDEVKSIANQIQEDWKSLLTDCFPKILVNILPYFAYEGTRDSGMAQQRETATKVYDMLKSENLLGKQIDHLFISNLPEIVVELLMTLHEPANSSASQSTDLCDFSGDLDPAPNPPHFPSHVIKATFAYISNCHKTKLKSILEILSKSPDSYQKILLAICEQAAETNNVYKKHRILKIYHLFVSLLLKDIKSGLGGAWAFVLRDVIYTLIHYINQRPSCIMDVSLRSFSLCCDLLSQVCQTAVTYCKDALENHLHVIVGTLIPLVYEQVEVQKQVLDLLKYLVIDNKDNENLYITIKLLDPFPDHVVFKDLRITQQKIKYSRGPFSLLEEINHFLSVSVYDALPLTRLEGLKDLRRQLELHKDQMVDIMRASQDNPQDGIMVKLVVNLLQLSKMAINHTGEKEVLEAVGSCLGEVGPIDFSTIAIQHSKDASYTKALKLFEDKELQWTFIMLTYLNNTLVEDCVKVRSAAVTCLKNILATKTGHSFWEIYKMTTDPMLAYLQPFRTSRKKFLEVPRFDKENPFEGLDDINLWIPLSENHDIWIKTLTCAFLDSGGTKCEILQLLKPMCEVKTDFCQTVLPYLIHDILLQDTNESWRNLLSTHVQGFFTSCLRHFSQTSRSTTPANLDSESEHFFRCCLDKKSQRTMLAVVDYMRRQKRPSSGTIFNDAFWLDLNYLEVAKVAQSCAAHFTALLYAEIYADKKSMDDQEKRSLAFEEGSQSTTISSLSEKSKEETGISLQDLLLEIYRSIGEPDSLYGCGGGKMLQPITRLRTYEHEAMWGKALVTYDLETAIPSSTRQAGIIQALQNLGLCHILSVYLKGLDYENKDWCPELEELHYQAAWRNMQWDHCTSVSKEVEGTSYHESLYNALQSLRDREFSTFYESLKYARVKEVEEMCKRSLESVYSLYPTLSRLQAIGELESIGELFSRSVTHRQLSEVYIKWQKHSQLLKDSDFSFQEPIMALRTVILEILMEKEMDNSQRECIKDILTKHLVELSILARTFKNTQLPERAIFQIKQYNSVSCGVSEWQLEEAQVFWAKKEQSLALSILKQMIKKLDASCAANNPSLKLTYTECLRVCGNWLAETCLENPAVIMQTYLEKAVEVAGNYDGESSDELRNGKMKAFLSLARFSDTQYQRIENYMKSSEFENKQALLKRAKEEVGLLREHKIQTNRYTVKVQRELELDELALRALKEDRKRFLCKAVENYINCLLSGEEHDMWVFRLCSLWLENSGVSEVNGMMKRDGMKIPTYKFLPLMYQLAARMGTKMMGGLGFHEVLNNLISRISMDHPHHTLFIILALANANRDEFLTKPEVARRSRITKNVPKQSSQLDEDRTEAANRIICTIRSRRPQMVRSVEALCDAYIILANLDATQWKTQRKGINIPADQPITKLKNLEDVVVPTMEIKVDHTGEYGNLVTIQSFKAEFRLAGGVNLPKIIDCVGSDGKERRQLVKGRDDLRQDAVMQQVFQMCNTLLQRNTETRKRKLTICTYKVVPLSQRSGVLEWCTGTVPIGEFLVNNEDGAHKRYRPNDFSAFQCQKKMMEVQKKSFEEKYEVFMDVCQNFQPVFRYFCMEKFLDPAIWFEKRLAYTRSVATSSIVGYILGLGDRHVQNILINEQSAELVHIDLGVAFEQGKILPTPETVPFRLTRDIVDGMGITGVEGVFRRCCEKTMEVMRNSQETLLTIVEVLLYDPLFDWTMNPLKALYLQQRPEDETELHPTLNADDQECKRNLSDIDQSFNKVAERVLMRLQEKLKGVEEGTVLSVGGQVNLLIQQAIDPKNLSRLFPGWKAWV
# assayExplanation: ATM inhibition test (phosphorylation of Chk2 generated by ionizing radiation, AlphaScreen SureFire)
# Format: cell-based
# recordedConditions: phosphorylated Chk2 in NCI-H460 cells, ionizing radiation 8Gy, 1 hour after test compound treatment; read-out: ATM inhibitory activity
Reported values of IC50 for individual entries
measuredMetric: IC50

[[record]]
compound = "CNCc1ccnc(C(C)Nc2ccc3c(c2)Sc2cccc(-c4cc(N5CCOCC5)cc(=O)[nH]4)c2S3)n1 (stereo not drawn)"
systemname = "ATM (Homo sapiens, UniProt Q13315)"
measvalue = "100 to 500 nM"

[[record]]
compound = "CN(C)c1nccc(CNc2ccc3c(c2)Sc2cccc(-c4cc(N5CCOCC5)cc(=O)[nH]4)c2S3)n1"
systemname = "ATM (Homo sapiens, UniProt Q13315)"
measvalue = "100 to 500 nM"

[[record]]
compound = "O=c1cc(N2CCOCC2)cc(-c2cccc3c2Oc2ccc(NCc4cc(-c5cccnc5)ccn4)cc2C3)[nH]1"
systemname = "ATM (Homo sapiens, UniProt Q13315)"
measvalue = "< 100 nM"

[[record]]
compound = "COCCN1CCC(C(Nc2ccc3c(c2)Sc2cccc(-c4cc(N5CCOCC5)cc(=O)[nH]4)c2S3)c2ccc(C)cn2)CC1 (stereo not drawn)"
systemname = "ATM (Homo sapiens, UniProt Q13315)"
measvalue = "< 100 nM"

[[record]]
compound = "O=c1cc(N2CCOCC2)cc(-c2cccc3c2Oc2ccc(NCc4cncc(C5C=CCC5)c4)cc2C3)[nH]1 (stereo not drawn)"
systemname = "ATM (Homo sapiens, UniProt Q13315)"
measvalue = "< 100 nM"

[[record]]
compound = "O=c1cc(N2CCOCC2)nc(-c2cccc3c2Oc2ccc(NCc4cc(Cl)ccn4)cc2C3)[nH]1"
systemname = "ATM (Homo sapiens, UniProt Q13315)"
measvalue = "100 to 500 nM"

[[record]]
compound = "Cc1nccc(CNc2ccc3c(c2)Sc2cccc(-c4cc(N5CCOCC5)cc(=O)[nH]4)c2S3)n1"
systemname = "ATM (Homo sapiens, UniProt Q13315)"
measvalue = "500 to 2000 nM"

[[record]]
compound = "CC(Nc1ccc2c(c1)Cc1cccc(-c3cc(N4CCOCC4)cc(=O)[nH]3)c1O2)c1cc(C#N)ncn1 (stereo not drawn)"
systemname = "ATM (Homo sapiens, UniProt Q13315)"
measvalue = "100 to 500 nM"

[[record]]
compound = "COCC(CN1CCN(C)CC1)Nc1ccc2c(c1)Sc1cccc(-c3cc(N4CCOCC4)cc(=O)[nH]3)c1S2 (stereo not drawn)"
systemname = "ATM (Homo sapiens, UniProt Q13315)"
measvalue = "100 to 500 nM"

[[record]]
compound = "Cc1cncc(C(C)Nc2ccc3c(c2)Cc2cccc(-c4cc(N5CCOCC5)cc(=O)[nH]4)c2O3)c1 (single isomer, unassigned) [Example 2-14-88-1]"
systemname = "ATM (Homo sapiens, UniProt Q13315)"
measvalue = "100 to 500 nM"

[[record]]
compound = "CCC(CC)(Nc1ccc2c(c1)Sc1cccc(-c3cc(N4CCOCC4)cc(=O)[nH]3)c1S2)c1ccc(C)cn1"
systemname = "ATM (Homo sapiens, UniProt Q13315)"
measvalue = "500 to 2000 nM"

[[record]]
compound = "CCC(Nc1ccc2c(c1)Cc1cccc(-c3cc(N4CCOCC4)cc(=O)[nH]3)c1O2)c1cncc(OC)c1 (stereo not drawn) [Example 2-14-16]"
systemname = "ATM (Homo sapiens, UniProt Q13315)"
measvalue = "< 100 nM"

[[record]]
compound = "CC(C)(O)CN1CCC(Nc2ccc3c(c2)Sc2cccc(-c4cc(N5CCOCC5)cc(=O)[nH]4)c2S3)CC1"
systemname = "ATM (Homo sapiens, UniProt Q13315)"
measvalue = "100 to 500 nM"

[[record]]
compound = "Cc1ncsc1CNc1ccc2c(c1)Cc1cccc(-c3cc(N4CCOCC4)cc(=O)[nH]3)c1O2"
systemname = "ATM (Homo sapiens, UniProt Q13315)"
measvalue = "100 to 500 nM"

[[record]]
compound = "CC(Nc1ccc2c(c1)Cc1cccc(-c3cc(N4CCOCC4)cc(=O)[nH]3)c1O2)c1cc(Cl)ccn1 (stereo not drawn) [Example 2-14-23]"
systemname = "ATM (Homo sapiens, UniProt Q13315)"
measvalue = "< 100 nM"

[[record]]
compound = "Cc1cccc(CNc2ccc3c(c2)Cc2ccc(F)c(-c4cc(N5CCOCC5)cc(=O)[nH]4)c2O3)n1"
systemname = "ATM (Homo sapiens, UniProt Q13315)"
measvalue = "< 100 nM"

[[record]]
compound = "COc1cncc(CNc2ccc3c(c2)Cc2cc(C)cc(-c4cc(N5CCOCC5)cc(=O)[nH]4)c2O3)c1"
systemname = "ATM (Homo sapiens, UniProt Q13315)"
measvalue = "100 to 500 nM"

[[record]]
compound = "O=c1cc(N2CCOCC2)cc(-c2cccc3c2Sc2ccc(NCc4cccnc4)cc2C3)[nH]1"
systemname = "ATM (Homo sapiens, UniProt Q13315)"
measvalue = "100 to 500 nM"

[[record]]
compound = "Cc1ccnc(C(C)Nc2ccc3c(c2)Cc2ccnc(-c4cc(N5CCOCC5)cc(=O)[nH]4)c2O3)c1 (stereo not drawn)"
systemname = "ATM (Homo sapiens, UniProt Q13315)"
measvalue = "100 to 500 nM"

[[record]]
compound = "COC[C@@H](Nc1ccc2c(c1)Sc1cccc(-c3cc(N4CCOCC4)cc(=O)[nH]3)c1S2)C(=O)O"
systemname = "ATM (Homo sapiens, UniProt Q13315)"
measvalue = "500 to 2000 nM"

[[record]]
compound = "CCC(Nc1ccc2c(c1)Sc1cccc(-c3cc(N4CCOCC4)cc(=O)[nH]3)c1S2)c1cncc(OC)c1 (stereo not drawn)"
systemname = "ATM (Homo sapiens, UniProt Q13315)"
measvalue = "100 to 500 nM"

[[record]]
compound = "Cc1cnc(C(CCN(C)C)Nc2ccc3c(c2)Sc2cccc(-c4cc(N5CCOCC5)cc(=O)[nH]4)c2S3)cn1 (single isomer, unassigned) [Example 1-22-12-2]"
systemname = "ATM (Homo sapiens, UniProt Q13315)"
measvalue = "< 100 nM"

[[record]]
compound = "Nc1ccc2c(c1)CCc1cccc(-c3cc(N4CCOCC4)cc(=O)[nH]3)c1O2"
systemname = "ATM (Homo sapiens, UniProt Q13315)"
measvalue = "500 to 2000 nM"

[[record]]
compound = "O=c1cc(N2CCOCC2)cc(-c2cccc3c2Oc2ccc(NC4CCN(c5cccnc5)CC4)cc2C3)[nH]1"
systemname = "ATM (Homo sapiens, UniProt Q13315)"
measvalue = "100 to 500 nM"

[[record]]
compound = "Cc1ccc(CNc2ccc3c(c2)Cc2cccc(-c4cc(N5CCOCC5)cc(=O)[nH]4)c2O3)s1"
systemname = "ATM (Homo sapiens, UniProt Q13315)"
measvalue = "500 to 2000 nM"

[[record]]
compound = "Cc1ccc(C(CCN(C)CCCN(C)C)Nc2ccc3c(c2)Sc2cccc(-c4cc(N5CCOCC5)cc(=O)[nH]4)c2S3)nc1 (single isomer, unassigned)"
systemname = "ATM (Homo sapiens, UniProt Q13315)"
measvalue = "100 to 500 nM"

[[record]]
compound = "COc1cc(CNc2ccc3c(c2)Sc2cccc(-c4cc(N5CCOCC5)cc(=O)[nH]4)c2S3)ccn1"
systemname = "ATM (Homo sapiens, UniProt Q13315)"
measvalue = "< 100 nM"

